Origin of measurements: ChEMBL document CHEMBL1806435

assay: Inhibition of Streptococcus pneumoniae LigA by FRET-based assay
For each of the compounds below, state its log10 IC50.
Scale: decimal log of IC50, IC50 in nM.

What log10 IC50 value was documented for this compound, Nc1nc(OC2CCCC2)nc2c1ncn2[C@@H]1O[C@H](CO)[C@@H](O)[C@H]1O ?
2.18

// lookup log10 IC50 for C[C@H]1O[C@@H](n2cnc3c(N)nc(OC4CCCC4)nc32)[C@H](O)[C@@H]1O
1.90

May I ask what log10 IC50 has been recorded for Nc1nc(OC2CCCC2)nc2c1ncn2[C@@H]1O[C@H](CF)[C@@H](O)[C@H]1O ?
2.08

Item under review: C[C@H]1O[C@@H](n2cnc3c(N)nc(OC4CC5CC5C4)nc32)[C@H](O)[C@@H]1O (some centres undefined) . Reported log10 IC50?
1.78

Need log10 IC50 of [N-]=[N+]=N[C@@H]1[C@@H](O)[C@H](n2cnc3c(N)nc(OC4CCCC4)nc32)O[C@@H]1CF , thanks.
1.85

// lookup log10 IC50 for CCCCSc1nc(N)c2ncn([C@@H]3O[C@H](CO)[C@@H](O)[C@H]3O)c2n1
2.15

Recorded log10 IC50 of C[C@H]1O[C@@H](n2cnc3c(N)nc(O[C@H]4CC[C@H](C)CC4)nc32)[C@H](O)[C@@H]1O , please.
1.70

Name the recorded log10 IC50 for Nc1nc(OCc2nccs2)nc2c1ncn2[C@@H]1O[C@H](CF)[C@@H](O)[C@H]1O .
2.94

For the compound shown here, C[C@H]1O[C@@H](n2cnc3c(N)nc(OCC4CC45CC5)nc32)[C@H](O)[C@H]1Cl (some centres undefined) , give the reported log10 IC50.
1.30

---

system: Staphylococcus aureus; assay: Antibacterial activity against Staphylococcus aureus; assay type: functional
met if MIC is below 8 µg/mL. not met if not; exact matches included in not met.

Is it true that MIC reported for C[C@H]1O[C@@H](n2cnc3c(N)nc(OC4CC5CC5C4)nc32)[C@H](O)[C@@H]1O (stereo partly drawn) is less than 8 µg/mL?
met

Lab note: MIC threshold 8 µg/mL. Does this compound come in strictly under it? Nc1nc(OCC2(CO)CC2)nc2c1ncn2[C@@H]1O[C@H](CF)[C@@H](O)[C@H]1O
not met

Please check: MIC for Nc1nc(OC2CCCC2)nc2c1ncn2[C@@H]1O[C@H](CO)[C@@H](O)[C@H]1O , strictly under 8 µg/mL or not?
not met

Given the entry CCCCSc1nc(N)c2ncn([C@@H]3O[C@H](CO)[C@@H](O)[C@H]3O)c2n1 , would its reported MIC be below 8 µg/mL?
not met

Determine whether this compound shows MIC lower than 8 µg/mL (ties excluded): Nc1nc(OC2CCCC2)nc2c1ncn2[C@@H]1O[C@H](CF)[C@@H](O)[C@H]1O
not met

State whether 8 µg/mL exceeds MIC recorded for C[C@H]1O[C@@H](n2cnc3c(N)nc(Oc4ccccc4)nc32)[C@H](O)[C@@H]1O .
not met

Please determine if C[C@H]1O[C@@H](n2cnc3c(N)nc(O[C@H]4CC[C@H](C)CC4)nc32)[C@H](O)[C@@H]1O is below 8 µg/mL in terms of MIC.
met

Please indicate whether the reported MIC of Nc1nc(OCc2nccs2)nc2c1ncn2[C@@H]1O[C@H](CF)[C@@H](O)[C@H]1O is strictly below 8 µg/mL.
not met

Item Nc1nc(SC2CCCC2)nc2c1ncn2[C@@H]1O[C@H](CO)[C@@H](O)[C@H]1O : MIC beneath 8 µg/mL, strictly?
not met

Does the reported MIC of CCCCSc1nc(N)c2ncn([C@@H]3O[C@H](C)[C@@H](O)[C@H]3O)c2n1 stay below 8 µg/mL?
not met

Please indicate whether the reported MIC of C[C@H]1O[C@@H](n2cnc3c(N)nc(OCC4CC45CC5)nc32)[C@H](O)[C@@H]1O (stereo partly drawn) is strictly below 8 µg/mL.
met

Determine whether this compound shows MIC lower than 8 µg/mL (ties excluded): C[C@H]1O[C@@H](n2cnc3c(N)nc(OCC4CC45CC5)nc32)[C@H](O)[C@H]1Cl (stereo partly drawn)
met
